target: recombinant human MMP-13 (Homo sapiens, UniProt P45452); construct: made in house; test: In vitro metalloprotease inhibition, fluorogenic peptide assay (MMP-13); assay type: biochemical; conditions: recombinant human MMP-13, APMA activated; fluorogenic MCA peptide substrate 4 uM; pH 7.5, room temperature
READOUT: IC50

MOLECULE	READOUT	RESULT
COc1ccc(S(=O)(=O)N(Cc2ncc[nH]2)[C@H](C)CS)cc1 [Example 111]	IC50	0.04 µM
CSc1nccc(S(=O)(=O)N[C@H](C)CS)n1 [Example 150]	IC50	9 µM
C[C@H](CS)NS(=O)(=O)c1ccc(I)cc1 [Example 66]	IC50	0.038 µM

Recorded IC50 for CC(=O)Nc1ccc(S(=O)(=O)N[C@H](C)CS)cc1 [Example 84] on recombinant human MMP-13 (Homo sapiens, UniProt P45452) was > 10 µM

====

molecular target: recombinant human MMP-13 (Homo sapiens); construct: made in house; assay: In vitro metalloprotease inhibition, fluorogenic peptide assay (MMP-13); format: biochemical; details: recombinant human MMP-13, APMA activated; fluorogenic MCA peptide substrate 4 uM; pH 7.5, room temperature
READOUT: pIC50
Answers are plain numbers, as −log10 of the molar value.

Some solved cases for reference:
MOLECULE	MEASURED_NUMBER
C[C@H](CSC(=O)C(C)(C)C)N(CCN1CCOCC1)S(=O)(=O)c1ccc(Sc2ccccc2)cc1	5.38
CCCCOc1ccc(S(=O)(=O)N[C@H](C)CS)cc1	7.12
C[C@H](CS)NS(=O)(=O)c1ccc2oc3ccccc3c2c1	6.22
COc1ccc(S(=O)(=O)N(C)CCc2ccccc2S)cc1	5.48

Let's switch to this molecule now.
The reported pIC50 of the molecule C[C@H](CS)NS(=O)(=O)c1ccccc1 [Example 82] was 5.92

====

target: recombinant human MMP-1 (Homo sapiens); assay: In vitro metalloprotease inhibition, fluorogenic peptide assay (MMP-1); settings: recombinant human MMP-1, APMA activated; fluorogenic MCA peptide substrate 4 uM; pH 7.5, room temperature
Sequence (P03956 100-469): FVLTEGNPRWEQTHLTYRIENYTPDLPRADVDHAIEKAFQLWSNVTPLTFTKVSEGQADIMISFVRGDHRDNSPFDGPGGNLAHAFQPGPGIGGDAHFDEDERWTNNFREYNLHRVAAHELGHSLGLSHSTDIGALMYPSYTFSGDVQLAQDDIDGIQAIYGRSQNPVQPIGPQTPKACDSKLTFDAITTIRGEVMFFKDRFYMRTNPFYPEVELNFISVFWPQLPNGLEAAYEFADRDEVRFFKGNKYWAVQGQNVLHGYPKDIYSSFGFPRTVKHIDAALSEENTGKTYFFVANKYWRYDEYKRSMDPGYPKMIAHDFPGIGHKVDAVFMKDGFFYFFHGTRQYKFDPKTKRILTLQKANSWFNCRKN
READOUT: IC50

COMPOUND	TEST_SYSTEM	RESULT
COc1ccc(S(=O)(=O)N2CCC(S)C2)cc1 (centres unmarked) [Example 26]	recombinant human MMP-1 (Homo sapiens)	> 10 µM

Batch request: IC50 for each of the following compounds.
1. CCCCOc1ccc(S(=O)(=O)N[C@@H](CS)C(=O)NCc2ccccc2)cc1 [Example 209]
2. COc1ccc(S(=O)(=O)N(C)Cc2ccccc2S)cc1 [Example 44]
3. CCCCOc1ccc(S(=O)(=O)N[C@@H](CS)C(=O)NCCN2CCOCC2)cc1 [Example 172]
4. CC(=O)Nc1ccc(S(=O)(=O)N(C)[C@@H](CS)C(N)=O)cc1 [Example 203]

# output
1: > 10 µM; 2: > 10 µM; 3: > 10 µM; 4: > 10 µM

====

I'd be grateful if you could share measured IC50 for these entries.
target: recombinant human MMP-13 (Homo sapiens, UniProt P45452); construct: made in house; assay: In vitro metalloprotease inhibition, fluorogenic peptide assay (MMP-13); type: biochemical; settings: recombinant human MMP-13, APMA activated; fluorogenic MCA peptide substrate 4 uM; pH 7.5, room temperature
Answers are plain numbers, in nM.

MOLECULE	IC50 [nM]
COc1ccc(S(=O)(=O)N(Cc2ccsc2)[C@H](C)CS)cc1	150

Batch request: IC50 for each of the following molecules.
1. COc1ccc(S(=O)(=O)N(Cc2ccccc2)[C@H](C)CS)cc1 (racemic) [Example 56]
2. C[C@H](CS)N(CC(=O)O)S(=O)(=O)c1ccc(Sc2ccccc2)cc1
3. COc1ccc(S(=O)(=O)N(CC(C)C)[C@H](C)CS)cc1 [Example 14C]
4. CCCCCc1ccc(S(=O)(=O)N[C@@H](CS)C(N)=O)cc1

# output
67.5
17
46
17
